All figures here come from patent US9278915B2.

Reported pEC50 values are given for each entry in this list.
# Measured Target: UniProt:O14842
# Sequence (O14842 whole entry): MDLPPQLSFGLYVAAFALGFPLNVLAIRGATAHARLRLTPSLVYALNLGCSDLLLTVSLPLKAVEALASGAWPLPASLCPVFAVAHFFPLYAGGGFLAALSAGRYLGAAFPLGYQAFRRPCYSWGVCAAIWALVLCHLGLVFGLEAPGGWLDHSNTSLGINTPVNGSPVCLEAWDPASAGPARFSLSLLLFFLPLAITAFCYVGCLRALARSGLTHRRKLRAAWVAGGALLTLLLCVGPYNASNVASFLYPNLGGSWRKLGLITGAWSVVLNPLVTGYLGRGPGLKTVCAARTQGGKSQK
# Assay Overview: Calcium flux assay to detect GPR40 activation
# Conditions Used: CHO-K cells stably expressing hGPR40; Fluo-4 NW; read for 4 min at 5 s intervals
pEC50: −log10 of the molar value.

- Compound: "CO/N=C(\\COc1ccc(COc2ccc(C(C#N)CC(=O)O)cc2)cc1OC)c1ccccc1 (centres unmarked)"
  pEC50: "7.00 to 8.00"

The recorded pEC50 for CO/N=C(\COc1ccc(COc2ccc(C(C#N)CC(=O)O)c(OC)c2)cc1)c1ccccc1 (centres unmarked) is 7.00 to 8.00

The recorded pEC50 for CO/N=C(/c1ccccc1)c1cccc(COc2ccc(CCC(=O)O)cc2)c1 is 7.00 to 8.00

The recorded pEC50 for N#CC(CC(=O)O)c1ccc(OCc2ccc(OC/C(=N\O)c3ccccc3)cc2)cc1 (centres unmarked) [Compound 78] is 7.00 to 8.00

The recorded pEC50 for C=CCO/N=C(\COc1ccc(COc2ccc(CCC(=O)O)cc2)cc1)c1ccccc1 is > 8.00

The recorded pEC50 for CO/N=C(\COc1ccc(COc2ccc(CCC(=O)O)c(C)c2)cc1)c1ccccc1 is < 7.00

The recorded pEC50 for CO/N=C(\COc1ccc(COc2ccc(CCC(=O)O)c(CC#N)c2)cc1)c1ccccc1 is < 7.00

The recorded pEC50 for CO/N=C(\COc1ccc(COc2ccc(CCC(=O)O)c(F)c2)cc1)c1ccccc1 [Compound 36] is > 8.00
